tested on: SNB-19; experiment: NCI tumour cell line growth inhibition, 48 h
Active and inactive are the calls of the source. Cut-off read from the data, not from the text of the source: active = GI50 up to about 1.1 µM and inactive = higher.
For each of the compounds below, state its GI50.

Per the records, this compound ( O=C(CC(=O)n1nc(-c2ccccc2)c(/N=N/c2ccc([N+](=O)[O-])cc2)c1-c1ccccc1)Nc1ccc(Cl)cc1 ) has GI50 equal to 26.4 µM (inactive)

Per the records, this compound ( COc1ccc(O)c(/C=N\Nc2ccccc2)c1 ) has GI50 equal to 30.8 µM (inactive)

Per the records, this compound ( CN(C)C(=O)N1N[C@H](c2ccccc2)[C@@H]1c1ccccc1 ) has GI50 equal to > 100 µM (inactive)

Per the records, this compound ( Nc1ccccc1C(=O)N/N=C1\C(=O)Nc2ccccc21 ) has GI50 equal to 35.4 µM (inactive)

Origin of measurements: ChEMBL document CHEMBL1201862
